UniProt O42275: recorded pIC50 for assorted compounds
Sequence (O42275 whole entry): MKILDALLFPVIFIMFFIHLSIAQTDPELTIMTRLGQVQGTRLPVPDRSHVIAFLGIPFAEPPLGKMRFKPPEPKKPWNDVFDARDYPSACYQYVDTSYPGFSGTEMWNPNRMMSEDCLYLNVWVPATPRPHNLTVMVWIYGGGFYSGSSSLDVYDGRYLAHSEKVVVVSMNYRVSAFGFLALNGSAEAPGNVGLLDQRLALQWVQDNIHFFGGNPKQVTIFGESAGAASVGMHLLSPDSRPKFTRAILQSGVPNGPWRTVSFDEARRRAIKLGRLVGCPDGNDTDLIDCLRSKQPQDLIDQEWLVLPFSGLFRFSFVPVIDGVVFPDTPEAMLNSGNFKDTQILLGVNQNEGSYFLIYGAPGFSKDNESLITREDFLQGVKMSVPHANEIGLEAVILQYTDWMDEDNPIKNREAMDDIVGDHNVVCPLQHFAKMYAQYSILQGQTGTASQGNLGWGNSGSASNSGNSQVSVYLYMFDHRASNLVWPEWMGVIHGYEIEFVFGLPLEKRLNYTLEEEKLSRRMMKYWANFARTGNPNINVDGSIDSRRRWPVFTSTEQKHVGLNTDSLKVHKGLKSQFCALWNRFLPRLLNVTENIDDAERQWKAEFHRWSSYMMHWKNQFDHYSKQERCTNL
pIC50: −log10 of the molar value.
READOUT KIND: pIC50

>>> quantitative_readout("CC[C@H](CC[C@@H](C)[C@H]1CC[C@H]2[C@@H]3CCC4=C[C@@H](O)CC[C@]4(C)[C@H]3CC[C@]12C)C(C)C")
4.82
>>> quantitative_readout("CC[C@H](/C=C/[C@@H](C)[C@H]1CC[C@@H]2[C@]1(C)CC=C1[C@]23C=C[C@]2(C[C@@H](O)CC[C@]12C)OO3)C(C)C")
4.58
>>> quantitative_readout("CC[C@H](C[C@@H](O)[C@@H](C)[C@H]1CCC2C3CCC4=CC(=O)CC[C@]4(C)C3=CC[C@@]21C)C(C)C (stereo partly drawn)")
6.00
>>> quantitative_readout("CCC(CC[C@@H](C)[C@H]1CC[C@H]2C3=CC(O)C4(O)C[C@@H](O)CC[C@]4(C)[C@H]3CC[C@]12C)C(C)C (stereo partly drawn)")
4.86
>>> quantitative_readout("CC[C@H](C[C@@H](O)[C@@H](C)[C@H]1CCC2C3C=CC4=C[C@@H](O)C[C@H](O)[C@]4(C)C3CC[C@@]21C)C(C)C (stereo partly drawn)")
6.05
>>> quantitative_readout("CC[C@H](C[C@@H](O)[C@@H](C)[C@H]1CCC2C3CC=C4C[C@@H](O)C[C@H](O)[C@]4(C)C3CC[C@@]21C)C(C)C (stereo partly drawn)")
5.08
>>> quantitative_readout("CC[C@H](/C=C/[C@@H](C)[C@H]1CC[C@H]2[C@@H]3C=CC4C[C@@H](O)CC[C@]4(C)C3=CC[C@]12C)C(C)C (stereo partly drawn)")
4.72
>>> quantitative_readout("CC[C@H](C[C@@H](O)[C@@H](C)[C@H]1CC[C@H]2[C@@H]3C[C@@H](O)[C@@]4(O)C[C@@H](O)C[C@H](O)[C@]4(C)[C@H]3CC[C@]12C)C(C)C")
4.76

====

molecular target: Butyrylcholinesterase (Equus caballus, UniProt Q9N1N9); assay: Inhibitory activity against BuChE from horse serum
Sequence (Q9N1N9 whole entry): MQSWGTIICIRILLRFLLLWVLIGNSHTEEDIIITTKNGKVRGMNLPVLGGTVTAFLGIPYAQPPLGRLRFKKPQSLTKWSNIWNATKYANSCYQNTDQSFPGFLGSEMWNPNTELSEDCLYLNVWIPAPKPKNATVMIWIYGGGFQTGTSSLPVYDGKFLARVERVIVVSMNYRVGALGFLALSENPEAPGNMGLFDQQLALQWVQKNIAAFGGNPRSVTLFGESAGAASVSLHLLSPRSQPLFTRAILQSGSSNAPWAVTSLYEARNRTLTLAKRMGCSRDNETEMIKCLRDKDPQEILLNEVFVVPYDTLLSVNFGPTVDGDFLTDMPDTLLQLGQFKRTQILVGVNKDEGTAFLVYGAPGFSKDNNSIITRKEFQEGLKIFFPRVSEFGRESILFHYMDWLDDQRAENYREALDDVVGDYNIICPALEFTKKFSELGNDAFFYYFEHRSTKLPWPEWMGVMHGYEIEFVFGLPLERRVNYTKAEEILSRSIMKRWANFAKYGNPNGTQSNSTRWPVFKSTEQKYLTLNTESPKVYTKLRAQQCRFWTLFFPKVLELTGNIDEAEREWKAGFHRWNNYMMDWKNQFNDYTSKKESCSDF
pKi: −log10 of the molar value.
// values below are reported pKi
READOUT KIND: pKi

>>> quantitative_readout("CCC(CC[C@@H](C)[C@H]1CC[C@H]2C3=CC(O)C4(O)C[C@@H](O)CC[C@]4(C)[C@H]3CC[C@]12C)C(C)C (some centres undefined)")
5.60
>>> quantitative_readout("CC[C@H](C[C@@H](O)[C@@H](C)[C@H]1CCC2C3CCC4=CC(=O)CC[C@]4(C)C3=CC[C@@]21C)C(C)C (some centres undefined)")
4.74
>>> quantitative_readout("CC[C@H](C[C@@H](O)[C@@H](C)[C@H]1CCC2C3CC=C4C[C@@H](O)C[C@H](O)[C@]4(C)C3CC[C@@]21C)C(C)C (some centres undefined)")
5.35
>>> quantitative_readout("CC[C@H](/C=C/[C@@H](C)[C@H]1CC[C@@H]2[C@]1(C)CC=C1[C@]23C=C[C@]2(C[C@@H](O)CC[C@]12C)OO3)C(C)C")
5.30
>>> quantitative_readout("CCC(CC[C@@H](C)[C@H]1CC[C@H]2[C@@H]3C=CC4(O)C[C@@H](O)CC[C@]4(C)[C@H]3CC[C@]12C)C(C)C (some centres undefined)")
5.38
>>> quantitative_readout("CC[C@H](/C=C/[C@@H](C)[C@H]1CC[C@H]2[C@@H]3C=CC4C[C@@H](O)CC[C@]4(C)C3=CC[C@]12C)C(C)C (some centres undefined)")
5.34
>>> quantitative_readout("CC[C@H](C[C@@H](O)[C@@H](C)[C@H]1CCC2C3C=CC4=C[C@@H](O)C[C@H](O)[C@]4(C)C3CC[C@@]21C)C(C)C (some centres undefined)")
5.60
>>> quantitative_readout("CC[C@H](C[C@@H](O)[C@@H](C)[C@H]1CC[C@H]2[C@@H]3C[C@@H](O)[C@@]4(O)C[C@@H](O)C[C@H](O)[C@]4(C)[C@H]3CC[C@]12C)C(C)C")
5.66
>>> quantitative_readout("CC[C@H](CC[C@@H](C)[C@H]1CC[C@H]2[C@@H]3CCC4=C[C@@H](O)CC[C@]4(C)[C@H]3CC[C@]12C)C(C)C")
5.43

The origin of these recorded values is ChEMBL document CHEMBL1149406.
